Origin of measurements: paper PMC8599812

- assayTarget: D2-Zn-WH helix4A (human, UniProt P46063 282-616, F420A;F424A;S427A;S428A)
- Sequence (P46063 282-616 F420A/F424A/S427A/S428A): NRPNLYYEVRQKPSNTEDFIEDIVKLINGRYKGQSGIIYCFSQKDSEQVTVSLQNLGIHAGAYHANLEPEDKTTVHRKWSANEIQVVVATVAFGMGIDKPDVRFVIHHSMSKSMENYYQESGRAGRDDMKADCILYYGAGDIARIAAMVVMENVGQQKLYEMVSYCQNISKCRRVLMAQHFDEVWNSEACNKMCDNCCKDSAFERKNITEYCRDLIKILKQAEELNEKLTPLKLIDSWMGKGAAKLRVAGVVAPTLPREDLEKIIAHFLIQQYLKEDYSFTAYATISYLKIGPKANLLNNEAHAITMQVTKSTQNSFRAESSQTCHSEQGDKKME
- methodDescription: fluorescence anisotropy
measuredProperty: pKd
Expect pKd as a plain number equal to -log10 of the molar concentration.

Value of pKd reported for the binder Rec20_FL/Rec20R 20 bp blunt duplex (dsDNA) DNA 1: GGATCTCGACGCTCTCCCTT DNA 2: AAGGGAGAGCGTCGAGATCC is 5.68
